RUN_DESCRIPTION: Rifampin (strong CYP3A inducer) DDI study, plasma pharmacokinetics
Type: in vivo, human
ASSAY_CONTEXT: both sexes, human, plasma, po, 100 mg, ripretinib 100 mg single oral dose alone, fasting, healthy participants (rifampin study, N = 21); read-out: AUC0–t, arithmetic mean (SD)
REPORTED_PROPERTY: AUC(0-t)
Form field: result (number plus unit)

molecule CCn1c(=O)c(-c2cc(NC(=O)Nc3ccccc3)c(F)cc2Br)cc2cnc(NC)cc21 , AUC(0-t) observed: 6620 ng·h/mL

----------
RUN_DESCRIPTION: Rifampin (strong CYP3A inducer) DDI study, plasma pharmacokinetics
Assay type: in vivo, human
ASSAY_CONTEXT: both sexes, human, plasma, po, 100 mg, ripretinib 100 mg single oral dose alone, fasting, healthy participants (rifampin study, N = 21); read-out: t1/2, geometric mean (CV%) (converted)
Experimental: All studies were phase 1, fixed‐sequence, open‐label studies in healthy volunteers. […] Participants were confined to the study center from days −1 through 22 for the collection of plasma PK samples and all study procedures. […] Safety was assessed throughout the study period and with a follow‐up phone call on day 29 or 7 days after discontinuation in the case of early withdrawal. […]
REPORTED_PROPERTY: half-life

compound CCn1c(=O)c(-c2cc(NC(=O)Nc3ccccc3)c(F)cc2Br)cc2cnc(NC)cc21 , half-life observed: 15 h

----------
RUN_DESCRIPTION: Itraconazole (strong CYP3A inhibitor) DDI study, plasma pharmacokinetics
Format: in vivo, human
ASSAY_CONTEXT: both sexes, human, plasma; ripretinib 50 mg single oral dose alone, fasting, healthy participants (itraconazole study, N = 20); read-out: tmax, median (min, max)
REPORTED_PROPERTY: Tmax (h)
Your answer is read as h, so omit the unit and give the number.

molecule CCn1c(=O)c(-c2cc(NC(=O)Nc3ccccc3)c(F)cc2Br)cc2cnc(NC)cc21 , Tmax observed: 3

----------
RUN_DESCRIPTION: Rifampin (strong CYP3A inducer) DDI study, plasma pharmacokinetics
Type: in vivo, human
ASSAY_CONTEXT: both sexes, human, plasma, po, 100 mg, ripretinib 100 mg single oral dose alone, fasting, healthy participants (rifampin study, N = 21); read-out: AUC0–t, geometric mean (CV%)
Protocol: All studies were phase 1, fixed‐sequence, open‐label studies in healthy volunteers. […] Participants were confined to the study center from days −1 through 22 for the collection of plasma PK samples and all study procedures. […] Safety was assessed throughout the study period and with a follow‐up phone call on day 29 or 7 days after discontinuation in the case of early withdrawal. […]
REPORTED_PROPERTY: AUC(0-t) (ng·h/mL)
Your answer is read as ng·h/mL, so omit the unit and give the number.

compound CCn1c(=O)c(-c2cc(NC(=O)Nc3ccccc3)c(F)cc2Br)cc2cnc(NC)cc21 [Ripretinib] , AUC(0-t) observed: 5720

----------
RUN_DESCRIPTION: Rifampin (strong CYP3A inducer) DDI study, plasma pharmacokinetics
Format: in vivo, human
ASSAY_CONTEXT: both sexes, human, plasma, po, 100 mg, ripretinib 100 mg single oral dose alone, fasting, healthy participants (rifampin study, N = 21); read-out: t1/2, arithmetic mean (SD) (converted)
REPORTED_PROPERTY: half-life (h)
Your answer is read as h, so omit the unit and give the number.

molecule CCn1c(=O)c(-c2cc(NC(=O)Nc3ccccc3)c(F)cc2Br)cc2cnc(NC)cc21 [Ripretinib] , half-life observed: 15
